Values from paper PMC7156458

Consider the following compounds; for each one, report its Th-T assay signal, mean of three wells (Fig. 7a).
- TARGET_OF_ASSAY: Aβ42 (Homo sapiens, UniProt P05067)
- Sequence (P05067 672-713): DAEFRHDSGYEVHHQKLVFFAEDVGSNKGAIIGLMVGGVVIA
- METHOD_NOTES: Th-T (thioflavin-T) assay of Aβ42 aggregation
- Assay type: biochemical
- CONDITIONS: column suffix _10; reading M4
Reply: number alone, nothing else.

Please look up its Th-T assay signal, mean of three wells (Fig. 7a): `C=C1CC[C@@H]2[C@](C)(CC[C@H]3O[C@H](C=C(C)C)C[C@@]23C)[C@@H]1Cc1c(OC)oc(CO)c(C(=O)OC)c1=O`
0.2384

Please look up its Th-T assay signal, mean of three wells (Fig. 7a): `C=C1CC[C@@H]2[C@](C)(CC[C@H]3O[C@H](C=C(C)C)C[C@@]23C)[C@@H]1Cc1c(OC)oc(CO)c(C)c1=O`
0.324

Please look up its Th-T assay signal, mean of three wells (Fig. 7a): C=C1CCC2C(C)(CCC=C(C)C)C(O)CCC2(C)C1Cc1c(OC)oc(CO)c(C(=O)OC)c1=O (centres unmarked)
0.2515

Please look up its Th-T assay signal, mean of three wells (Fig. 7a): C=C1CCC2C(C)(CCC=C(C)C)C(O)CCC2(C)C1Cc1c(OC)oc(CO)c(C)c1=O (centres unmarked)
0.2928

Please look up its Th-T assay signal, mean of three wells (Fig. 7a): C=C1CCC2C(C)(CCC=C(C)C)C(O)CCC2(C)C1Cc1c(OC)oc(C)c(C(=O)OC)c1=O (centres unmarked)
0.2495

* * *

- TARGET_OF_ASSAY: Aβ42 (Homo sapiens, UniProt P05067)
- METHOD_NOTES: Th-T (thioflavin-T) assay of Aβ42 aggregation
- Type: biochemical
- CONDITIONS: measurement M6; source data, Ab alone and No Ab as controls
PROPERTY_LABEL: Th-T assay plate reading, mean of three wells (Supplementary Fig. 47)

Please look up its Th-T assay plate reading, mean of three wells (Supplementary Fig. 47): `C=C1CC[C@H]2[C@]3(C)C[C@H](C=C(C)C)O[C@H]3CC[C@]2(C)[C@@H]1Cc1c(O)c(C)c(C)oc1=O`
0.4846

Please look up its Th-T assay plate reading, mean of three wells (Supplementary Fig. 47): C=C1CCC2C(C)(CCC=C(C)C)C(O)CCC2(C)C1Cc1c(OC)oc(C)c(C)c1=O (stereo not shown) [Compound 11]
0.2762

Please look up its Th-T assay plate reading, mean of three wells (Supplementary Fig. 47): `CC(C)=CCC/C(C)=C/CC/C(C)=C/CC/C(C)=C/Cc1c(O)c(C)c(C)oc1=O`
0.5652

Please look up its Th-T assay plate reading, mean of three wells (Supplementary Fig. 47): C=C1CCC2C(C)(CC(=O)C=C(C)C)C(O)CCC2(C)C1Cc1c(OC)oc(CO)c(C)c1=O (stereo not shown)
0.5676

* * *

Consider the following molecules; for each one, report its Th-T fluorescence of Aβ42 (sheet Fig. 7a), mean of three wells.
- TARGET_OF_ASSAY: UniProt:P05067
- METHOD_NOTES: Th-T (thioflavin-T) assay of Aβ42 aggregation
- Type: biochemical
- CONDITIONS: head suffix _20 (concentration 20); reading M84

Please look up its Th-T fluorescence of Aβ42 (sheet Fig. 7a), mean of three wells: C=C1CC[C@@H]2[C@](C)(CC[C@H]3O[C@H](C=C(C)C)C[C@@]23C)[C@@H]1Cc1c(OC)oc(CO)c(C(=O)OC)c1=O [Compound 21]
0.5384

Please look up its Th-T fluorescence of Aβ42 (sheet Fig. 7a), mean of three wells: C=C1CCC2C(C)(CCC=C(C)C)C(O)CCC2(C)C1Cc1c(OC)oc(CO)c(C)c1=O (centres unmarked) [Compound 12]
2.082

Please look up its Th-T fluorescence of Aβ42 (sheet Fig. 7a), mean of three wells: C=C1CCC2C(C)(CCC=C(C)C)C(O)CCC2(C)C1Cc1c(OC)oc(C)c(C(=O)OC)c1=O (centres unmarked) [Compound 14]
1.889

Please look up its Th-T fluorescence of Aβ42 (sheet Fig. 7a), mean of three wells: C=C1CC[C@@H]2[C@](C)(CC[C@H]3O[C@H](C=C(C)C)C[C@@]23C)[C@@H]1Cc1c(OC)oc(CO)c(C)c1=O [Compound 20]
3.32

Please look up its Th-T fluorescence of Aβ42 (sheet Fig. 7a), mean of three wells: C=C1CCC2C(C)(CCC=C(C)C)C(O)CCC2(C)C1Cc1c(OC)oc(CO)c(C(=O)OC)c1=O (centres unmarked) [Compound 13]
1.053

* * *

Consider the following molecules; for each one, report its Th-T assay plate reading, mean of three wells (Supplementary Fig. 47).
- TARGET_OF_ASSAY: Aβ42 (Homo sapiens, UniProt P05067)
- METHOD_NOTES: Th-T (thioflavin-T) assay of Aβ42 aggregation
- Type: biochemical
- CONDITIONS: measurement M15; source data, Ab alone and No Ab as controls
Reply: number alone, nothing else.

Please look up its Th-T assay plate reading, mean of three wells (Supplementary Fig. 47): C=C1CC[C@@H]2[C@](C)(CC[C@H]3O[C@H](C=C(C)C)C[C@@]23C)[C@@H]1Cc1c(OC)oc(CO)c(C(=O)OC)c1=O [Compound 21]
0.1938

Please look up its Th-T assay plate reading, mean of three wells (Supplementary Fig. 47): C=C1CCC2C(C)(CCC=C(C)C)C(=O)CCC2(C)C1Cc1c(O)c(C)c(C)oc1=O (centres unmarked) [Compound 8]
0.733

Please look up its Th-T assay plate reading, mean of three wells (Supplementary Fig. 47): C=C1CC[C@H]2[C@]3(C)C[C@@H](C=C(C)C)O[C@H]3CC[C@]2(C)[C@@H]1Cc1c(OC)oc(CO)c(C)c1=O [Compound 17]
2.575

Please look up its Th-T assay plate reading, mean of three wells (Supplementary Fig. 47): C=C1CCC2C(C)(CCC=C(C)C)C(O)CCC2(C)C1Cc1c(OC)oc(CO)c(C(=O)OC)c1=O (centres unmarked) [Compound 13]
0.1669

Please look up its Th-T assay plate reading, mean of three wells (Supplementary Fig. 47): C=C1CC[C@H]2[C@]3(C)C[C@H](C=C(C)C)O[C@H]3CC[C@]2(C)[C@@H]1Cc1c(O)c(C)c(C)oc1=O [Compound 6, subglutinol B]
0.8797

Please look up its Th-T assay plate reading, mean of three wells (Supplementary Fig. 47): C=C1CCC2C(C)(CC(=O)C=C(C)C)C(O)CCC2(C)C1Cc1c(O)c(C)c(C)oc1=O (centres unmarked) [Compound 7]
0.8372

Please look up its Th-T assay plate reading, mean of three wells (Supplementary Fig. 47): CC(C)=CCC/C(C)=C/CC/C(C)=C/CC/C(C)=C/Cc1c(O)c(C)c(C)oc1=O [Compound 2]
2.38

Please look up its Th-T assay plate reading, mean of three wells (Supplementary Fig. 47): C=C1CCC2C(C)(CCC=C(C)C)C(O)CCC2(C)C1Cc1c(OC)oc(CO)c(C)c1=O (centres unmarked) [Compound 12]
2.358

Please look up its Th-T assay plate reading, mean of three wells (Supplementary Fig. 47): C=C1CCC2C(C)(CC(=O)C=C(C)C)C(O)CCC2(C)C1Cc1c(OC)oc(C)c(C)c1=O (centres unmarked) [Compound 25]
2.352

Please look up its Th-T assay plate reading, mean of three wells (Supplementary Fig. 47): C=C1CC[C@H]2[C@]3(C)C[C@@H](C=C(C)C)O[C@H]3CC[C@]2(C)[C@@H]1Cc1c(O)c(C)c(C)oc1=O [Compound 5, subglutinol A]
1.273

Please look up its Th-T assay plate reading, mean of three wells (Supplementary Fig. 47): C=C1CCC2C(C)(CCC=C(C)C)C(O)CCC2(C)C1Cc1c(O)c(C)c(C)oc1=O (centres unmarked) [Compound 4]
1.366

Please look up its Th-T assay plate reading, mean of three wells (Supplementary Fig. 47): C=C1CC[C@@H]2[C@](C)(CC[C@H]3O[C@H](C=C(C)C)C[C@@]23C)[C@@H]1Cc1c(O)c(C)c(C)oc1=O [Compound 10, higginsianin A]
1.367

Please look up its Th-T assay plate reading, mean of three wells (Supplementary Fig. 47): C=C1CCC2C(C)(CCC=C(C)C)C(O)CCC2(C)C1Cc1c(OC)oc(C)c(C(=O)OC)c1=O (centres unmarked) [Compound 14]
0.8869

Please look up its Th-T assay plate reading, mean of three wells (Supplementary Fig. 47): C=C1CCC2C(C)(CC(=O)C=C(C)C)C(O)CCC2(C)C1Cc1c(OC)oc(CO)c(C)c1=O (centres unmarked) [Compound 19]
0.9399

* * *

- TARGET_OF_ASSAY: Aβ42 (Homo sapiens)
- METHOD_NOTES: Th-T (thioflavin-T) assay of Aβ42 aggregation
- Format: biochemical
- CONDITIONS: head suffix _20 (concentration 20); reading M63
Consider the following compounds; for each one, report its Th-T fluorescence of Aβ42 (sheet Fig. 7a), mean of three wells.
Reply: number alone, nothing else.

Please look up its Th-T fluorescence of Aβ42 (sheet Fig. 7a), mean of three wells: `C=C1CC[C@@H]2[C@](C)(CC[C@H]3O[C@H](C=C(C)C)C[C@@]23C)[C@@H]1Cc1c(OC)oc(CO)c(C)c1=O`
3.439

Please look up its Th-T fluorescence of Aβ42 (sheet Fig. 7a), mean of three wells: `C=C1CC[C@@H]2[C@](C)(CC[C@H]3O[C@H](C=C(C)C)C[C@@]23C)[C@@H]1Cc1c(OC)oc(CO)c(C(=O)OC)c1=O`
0.2431

Please look up its Th-T fluorescence of Aβ42 (sheet Fig. 7a), mean of three wells: C=C1CCC2C(C)(CCC=C(C)C)C(O)CCC2(C)C1Cc1c(OC)oc(C)c(C(=O)OC)c1=O (centres unmarked)
2.081

Please look up its Th-T fluorescence of Aβ42 (sheet Fig. 7a), mean of three wells: C=C1CCC2C(C)(CCC=C(C)C)C(O)CCC2(C)C1Cc1c(OC)oc(CO)c(C)c1=O (centres unmarked)
2.111

Please look up its Th-T fluorescence of Aβ42 (sheet Fig. 7a), mean of three wells: C=C1CCC2C(C)(CCC=C(C)C)C(O)CCC2(C)C1Cc1c(OC)oc(CO)c(C(=O)OC)c1=O (centres unmarked)
1.031
